# Test system: A549
# experimentalDetails: Proliferation Assays (NSCLC cell line sensitivity)
# Assay type: cell-based
# conditionsUsed: Homo sapiens, A549, read-out: IC50 (value in parentheses beside > 10 μM)
measuredQuantity: pIC50
Field pIC50 (float): negative decimal logarithm of the concentration in molar.

Entry C#Cc1cccc(Nc2ncnc3cc(OCCOC)c(OCCOC)cc23)c1 has what pIC50? 4.60

====

# System: H460
# experimentalDetails: Proliferation Assays (NSCLC cell line sensitivity)
# Type: cell-based
# conditionsUsed: H460; LCC; KRAS MUT G61H; EGFR WT; read-out: IC50
measuredQuantity: pIC50
Field pIC50 (float): negative decimal logarithm of the concentration in molar.

Entry CO[C@H]1CC[C@H](N2C(=O)CNc3ncc(-c4ccc(C(C)(C)O)nc4)nc32)CC1 has what pIC50? 6.82
